Hello, the source for this data is patent US20110086770A1, in case you need it.

Biological target: T1, recombinant human IL-23R/Fc chimera (R&D Systems) (human, UniProt Q5VWK5 24-353)
T1 construct: bought; also called human IL-23R/Fc fusion protein; rhIL23RFc
T1 sequence (looked up): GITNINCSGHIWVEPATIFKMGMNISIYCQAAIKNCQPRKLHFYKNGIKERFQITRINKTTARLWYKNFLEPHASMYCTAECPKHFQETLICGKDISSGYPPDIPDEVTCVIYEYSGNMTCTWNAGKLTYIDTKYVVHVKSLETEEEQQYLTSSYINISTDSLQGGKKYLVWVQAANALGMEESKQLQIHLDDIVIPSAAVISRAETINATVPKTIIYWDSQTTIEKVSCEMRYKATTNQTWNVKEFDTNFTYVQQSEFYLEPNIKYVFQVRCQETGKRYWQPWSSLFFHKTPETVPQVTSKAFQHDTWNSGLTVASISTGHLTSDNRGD
Assay: competition ELISA against IL-23
Method: Assays were performed generally as follows. Individual wells in Immulon HB2 plates were incubated overnight at 4° C. with 100 μL PBS containing 100 ng of an anti-human IgG Fc (R&D MAB 110 clone 97924). Plates were washed five times with PBS/0.05% Tween 20, and wells were incubated for 1.5 h at RT with 100 μL each of PBS containing 50 ng of recombinant human IL-23R/Fc. […] Competitor was included at a final concentration of 1 μg/mL. […]
value-type: Ratio IC50 to 056-53.H4E IC50 (ratio)
Please reply with the bare figure in ratio and do not write the unit itself.

105-61-4G3 ATRIMER (designed binder, not shown: C-terminal purification tag: Myc/His6 (pANA4) or HA-StrepII (pANA10)) EPPTQKPKKIVNAKKDVVNTKMFEELKSRLDTLAQEVALLKEQQALQTVCLKGTKVHMKCFLAFTQTKTFHEASEDCISRGGTLSTPQTGSENDALYEYLRQSVGNEAEIWLGLNGSLRTDTWVDMTGARIAYKNWETEITAQPDGGFGVFGENCAVLSGAANGKWFDKRCRDQLPYICQFGIV ... 0.8
105-08-2C8 ATRIMER (designed binder) EPPTQKPKKIVNAKKDVVNTKMFEELKSRLDTLAQEVALLKEQQALQTVCLKGTKVHMKCFLAFTQTKTFHEASEDCISRGGTLSTPQTGSENDALYEYLRQSVGNEAEIWLGLNGSWLTDTWVDMTGARIAYKNWETEITAQPDGGWGYFGENCAVLSGAANGKWFDKRCRDQLPYICQFGIV ... 8.4
105-20-1B4 ATRIMER (designed binder, Homotrimer of the given chain (ATRIMER complex).) EPPTQKPKKIVNAKKDVVNTKMFEELKSRLDTLAQEVALLKEQQALQTVCLKGTKVHMKCFLAFTQTKTFHEASEDCISRGGTLSTPQTGSENDALYEYLRQSVGNEAEIWLGLNGSSRTNTWVDMTGARIAYKNWETEITAQPDGGWGYFGENCAVLSGAANGKWFDKRCRDQLPYICQFGIV ... 3
105-08-1D1 ATRIMER (designed binder) EPPTQKPKKIVNAKKDVVNTKMFEELKSRLDTLAQEVALLKEQQALQTVCLKGTKVHMKCFLAFTQTKTFHEASEDCISRGGTLSTPQTGSENDALYEYLRQSVGNEAEIWLGLNGSALTDTWVDMTGARIAYKNWETEITAQPDGGWGYFGENCAVLSGAANGKWFDKRCRDQLPYICQFGIV ... 3.6

INPUT: Item under review: 105-08-1B7 ATRIMER (designed binder, Forms a homotrimer (ATRIMER) through the tetranectin coiled coil; one protomer is given., not shown: C-terminal tag) EPPTQKPKKIVNAKKDVVNTKMFEELKSRLDTLAQEVALLKEQQALQTVCLKGTKVHMKCFLAFTQTKTFHEASEDCISRGGTLSTPQTGSENDALYEYLRQSVGNEAEIWLGLNGSPRTDTWVDMTGARIAYKNWETEITAQPDGGFGYFGENCAVLSGAANGKWFDKRCRDQLPYICQFGIV . Reported Ratio IC50 to 056-53.H4E IC50?
OUTPUT: 4.1

INPUT: Item under review: 101-51-1A6 ATRIMER (designed binder, ATRIMER is a homotrimer; one protomer is given., not shown: C-terminal purification tag: Myc/His6 (pANA4) or HA-StrepII (pANA10)) EPPTQKPKKIVNAKKDVVNTKMFEELKSRLDTLAQEVALLKEQQALQTVCLKGTKVHMKCFLAFTQTKTFHEASEDCISRGGTLSTPQTGSENDALYEYLRQSVGNEAEIWLGLNGSALTNTWVDMTGARIAYKNWENNLSAQPRGGFGYFGENCAVLSGAANGKWFDKRCRDQLPYICQFGIV . Reported Ratio IC50 to 056-53.H4E IC50?
OUTPUT: 2.6

INPUT: Item under review: 105-08-1G9 ATRIMER (designed binder, not shown: C-terminal tag: His/Myc (pANA4) or HA-StrepII (pANA10)) EPPTQKPKKIVNAKKDVVNTKMFEELKSRLDTLAQEVALLKEQQALQTVCLKGTKVHMKCFLAFTQTKTFHEASEDCISRGGTLSTPQTGSENDALYEYLRQSVGNEAEIWLGLNGSPKTDTWVDMTGARIAYKNWETEITAQPDGGFGYFGENCAVLSGAANGKWFDKRCRDQLPYICQFGIV . Reported Ratio IC50 to 056-53.H4E IC50?
OUTPUT: 2.4
